- System: anaesthesized rats
- run_description: wheal test, intradermal injection
- Type: in vivo, rat
- protocol_conditions: 10 ug peptide intradermally
Starred links: 1 amine or outer side, 2 acyl side, 3 side chain; linkers in the order of their positions; H or OH if unused. Non-standard residues stand in square brackets, D forms with d. Residues, ends and D or L forms follow the SMILES beside them. *: point of attachment. dAla(cis-4-NHCOPyz-cHex) = N[C@H](C[C@H]1CC[C@@H](NC(=O)c2cnccn2)CC1)C(=O)O; X3 = O=C(N[C@H]1CC[C@H](C[C@@H](N[*:1])C(=O)[*:2])CC1)c1cnccn1; dPhe(4-Cl) = N[C@H](Cc1ccc(Cl)cc1)C(=O)O; d2Nal = N[C@H](Cc1ccc2ccccc2c1)C(=O)O; Lys(iPr) = CC(C)NCCCC[C@H](N)C(=O)O; d3Pal = N[C@H](Cc1cccnc1)C(=O)O; Nicotinoyl = O=C(c1cccnc1)*; Picolinoyl = O=C(c1ccccn1)*; X12 = O=C(c1ccncn1)*
measured_attribute: Wheal Area (mm^2 /10 μg)
Just the number please, in mm^2 /10 μg, no unit attached.

molecule	units_label	assay_result
CC(=O)N[C@H](Cc1ccc2ccccc2c1)C(=O)N[C@H](Cc1ccc(Cl)cc1)C(=O)N[C@H](Cc1cccnc1)C(=O)N[C@@H](CO)C(=O)N[C@@H](CCCCNC(=O)c1ccncn1)C(=O)N[C@H](CCCCNC(=O)c1ccncn1)C(=O)N[C@@H](CC(C)C)C(=O)N[C@@H](CCCCNC(C)C)C(=O)N1CCC[C@H]1C(=O)N[C@H](C)C(N)=O [compound 26322] (Ac-[d2Nal][dPhe(4-Cl)][d3Pal]SK(X12)[dK](X12)L[Lys(iPr)]P[dA]-NH2)	mm^2 /10 μg	130.2
CC(=O)N[C@H](Cc1ccc2ccccc2c1)C(=O)N[C@H](Cc1ccc(Cl)cc1)C(=O)N[C@H](Cc1cccnc1)C(=O)N[C@@H](CO)C(=O)N[C@@H](CCCCNC(=O)c1ccccn1)C(=O)N[C@H](CCCCNC(=O)c1ccccn1)C(=O)N[C@@H](Cc1c[nH]c2ccccc12)C(=O)N[C@@H](CCCCNC(C)C)C(=O)N1CCC[C@H]1C(=O)N[C@H](C)C(N)=O [compound 25935] (Ac-[d2Nal][dPhe(4-Cl)][d3Pal]SK(Picolinoyl)[dK](Picolinoyl)W[Lys(iPr)]P[dA]-NH2)	mm^2 /10 μg	78.5
CC(=O)N[C@H](Cc1ccc2ccccc2c1)C(=O)N[C@H](Cc1ccc(Cl)cc1)C(=O)N[C@H](Cc1cccnc1)C(=O)N[C@@H](CO)C(=O)N[C@@H](CCCCNC(=O)c1cccnc1)C(=O)N[C@H](C[C@H]1CC[C@@H](NC(=O)c2cnccn2)CC1)C(=O)N[C@@H](CC(C)C)C(=O)N[C@@H](CCCCNC(C)C)C(=O)N1CCC[C@H]1C(=O)N[C@H](C)C(N)=O [compound 25806] (Ac-[d2Nal][dPhe(4-Cl)][d3Pal]SK(Nicotinoyl)[dAla(cis-4-NHCOPyz-cHex)]L[Lys(iPr)]P[dA]-NH2)	mm^2 /10 μg	101.7
CC(=O)N[C@H](Cc1ccc2ccccc2c1)C(=O)N[C@H](Cc1ccc(Cl)cc1)C(=O)N[C@H](Cc1c[nH]c2ccccc12)C(=O)N[C@@H](CO)C(=O)N[C@@H](CCCCNC(=O)c1ccccn1)C(=O)N[C@H](CCCCNC(=O)c1ccccn1)C(=O)N[C@@H](CC(C)C)C(=O)N[C@@H](CCCCNC(C)C)C(=O)N1CCC[C@H]1C(=O)N[C@H](C)C(N)=O [compound 26177] (Ac-[d2Nal][dPhe(4-Cl)][dW]SK(Picolinoyl)[dK](Picolinoyl)L[Lys(iPr)]P[dA]-NH2)	mm^2 /10 μg	71.0

Then there is this molecule:
Problem: For CC(=O)N[C@H](Cc1ccc2ccccc2c1)C(=O)N[C@H](Cc1ccc(Cl)cc1)C(=O)N[C@H](Cc1cccnc1)C(=O)N[C@@H](CO)C(=O)N[C@@H](CCCCNC(=O)c1cccnc1)C(=O)N[C@H](C[C@H]1CC[C@H](NC(=O)c2cnccn2)CC1)C(=O)N[C@@H](CC(C)C)C(=O)N[C@@H](CCCCNC(C)C)C(=O)N1CCC[C@H]1C(=O)N[C@H](C)C(N)=O [compound 25805] (Ac-[d2Nal][dPhe(4-Cl)][d3Pal]SK(Nicotinoyl)[X3]L[Lys(iPr)]P[dA]-NH2) , write its Wheal Area.
Result: 129.6
